pIC50 for assorted compounds
Target: Integrin alpha-5/beta-1 (Homo sapiens, UniProt P05556+P08648)
Sequence (P05556 21-798 limits assumed): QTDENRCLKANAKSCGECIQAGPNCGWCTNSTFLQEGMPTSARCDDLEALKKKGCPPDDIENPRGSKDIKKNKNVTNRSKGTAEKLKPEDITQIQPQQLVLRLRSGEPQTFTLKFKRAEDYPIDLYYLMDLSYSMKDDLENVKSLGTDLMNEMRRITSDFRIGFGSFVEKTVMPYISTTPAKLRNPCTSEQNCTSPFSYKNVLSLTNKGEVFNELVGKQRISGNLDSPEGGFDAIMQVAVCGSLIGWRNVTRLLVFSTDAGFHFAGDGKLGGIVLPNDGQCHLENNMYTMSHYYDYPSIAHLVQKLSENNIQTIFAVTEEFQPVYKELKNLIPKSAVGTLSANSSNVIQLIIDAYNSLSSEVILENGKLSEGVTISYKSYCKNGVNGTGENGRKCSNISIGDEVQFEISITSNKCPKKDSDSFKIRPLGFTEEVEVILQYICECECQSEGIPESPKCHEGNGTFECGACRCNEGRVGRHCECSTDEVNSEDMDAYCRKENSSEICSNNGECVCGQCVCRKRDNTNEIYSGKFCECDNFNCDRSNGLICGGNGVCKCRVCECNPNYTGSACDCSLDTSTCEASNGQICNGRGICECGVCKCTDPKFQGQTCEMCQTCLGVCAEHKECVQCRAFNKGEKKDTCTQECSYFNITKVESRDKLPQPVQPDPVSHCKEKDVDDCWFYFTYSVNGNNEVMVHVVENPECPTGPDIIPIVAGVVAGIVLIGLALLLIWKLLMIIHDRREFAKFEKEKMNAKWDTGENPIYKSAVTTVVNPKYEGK
Sequence (P08648 42-894 limits assumed): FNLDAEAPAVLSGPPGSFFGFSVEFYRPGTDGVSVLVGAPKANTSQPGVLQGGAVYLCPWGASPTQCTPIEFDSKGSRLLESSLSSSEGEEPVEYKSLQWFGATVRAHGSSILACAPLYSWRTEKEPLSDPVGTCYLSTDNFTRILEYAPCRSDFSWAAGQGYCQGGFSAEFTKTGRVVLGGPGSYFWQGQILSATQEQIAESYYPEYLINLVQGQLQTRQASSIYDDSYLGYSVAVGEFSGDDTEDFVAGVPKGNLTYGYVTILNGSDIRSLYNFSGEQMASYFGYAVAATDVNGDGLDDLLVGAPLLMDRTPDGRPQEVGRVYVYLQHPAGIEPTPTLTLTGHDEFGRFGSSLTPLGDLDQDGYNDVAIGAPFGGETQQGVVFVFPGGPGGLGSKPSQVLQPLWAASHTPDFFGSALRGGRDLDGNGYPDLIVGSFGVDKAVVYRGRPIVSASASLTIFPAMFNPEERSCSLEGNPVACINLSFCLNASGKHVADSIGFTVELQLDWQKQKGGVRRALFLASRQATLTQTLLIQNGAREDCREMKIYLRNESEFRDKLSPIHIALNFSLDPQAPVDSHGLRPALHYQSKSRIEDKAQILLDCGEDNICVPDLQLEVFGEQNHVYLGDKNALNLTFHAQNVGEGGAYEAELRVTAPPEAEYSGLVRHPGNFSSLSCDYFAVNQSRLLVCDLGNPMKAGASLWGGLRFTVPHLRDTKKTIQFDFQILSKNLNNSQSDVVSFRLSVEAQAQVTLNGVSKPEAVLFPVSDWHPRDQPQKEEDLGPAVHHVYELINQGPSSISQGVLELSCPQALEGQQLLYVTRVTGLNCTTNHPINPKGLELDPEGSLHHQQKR
Sequence (P08648 895-1049 limits assumed): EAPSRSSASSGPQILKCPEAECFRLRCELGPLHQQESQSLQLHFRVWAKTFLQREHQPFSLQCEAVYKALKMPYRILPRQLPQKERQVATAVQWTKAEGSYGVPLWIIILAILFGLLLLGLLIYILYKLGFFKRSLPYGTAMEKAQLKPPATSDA
Assay: Inhibition of alpha5beta1 integrin-mediated cell adhesion in human K562 cells on fibronectin coated plate after 30 mins
pIC50: −log10 of the molar value.

# Chemical Smiles, Subject Of Test, Data Value
measured = [
    ("NC(N)=NCCC[C@H]1NC(=O)CC(=O)N[C@H](CC(=O)O)C(=O)N[C@H](Cc2ccccc2)CNC1=O", "Integrin alpha-5/beta-1 (Homo sapiens, UniProt P05556+P08648)", "< 4.00"),
    ("CC(C)[C@@H]1NC(=O)[C@@H](Cc2ccccc2)NC(=O)[C@H](CC(=O)O)NC(=O)CNC(=O)[C@H](CCCN=C(N)N)NC1=O", "Integrin alpha-5/beta-1 (Homo sapiens, UniProt P05556+P08648)", 4.46),
]

--- query ---
# input Give pIC50 for "N=C(N)NCCC[C@@H]1NC(=O)CC(=O)N[C@H](CC(=O)O)C(=O)N[C@@H](Cc2ccccc2)CNC1=O"
# output < 4.00
